test system: U2OS BAX/BAK1 DKO; experiment: maximum observed lethal fraction; higher = more cell death; settings: 0.01 µM;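 also: FLICK assay: SYTOX Green fluorescence of dead cells tracked over time after drugging in 96-well plates, with total cell counts taken from Triton X-100 lysed wells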
observed_property: maximum observed lethal fraction
No unit in the answer, please; the number alone is enough.

Please review the following examples before continuing.
## Input Returns the measured maximum observed lethal fraction for the input molecule. Input: CN1CC[C@H](c2c(O)cc(O)c3c(=O)cc(-c4ccccc4Cl)oc23)[C@H](O)C1
## Output 0.0607

## Input Returns the measured maximum observed lethal fraction for the input molecule. Input: COC(=O)C[C@](O)(CCCC(C)(C)O)C(=O)O[C@@H]1C(OC)=C[C@]23CCCN2CCc2cc4c(cc2[C@H]13)OCO4
## Output 0.0663

Continue with the molecule presented below.
## Input Returns the measured maximum observed lethal fraction for the input molecule. Input: CC(=O)N[C@H]1[C@@H](O[C@@H]2O[C@H](CC(O)[C@H]3O[C@@H](n4ccc(=O)[nH]c4=O)[C@H](O)[C@@H]3O)[C@H](O)[C@H](O)[C@H]2NC(=O)/C=C/CC(C)C)O[C@H](CO)[C@@H](N)[C@@H]1O (stereo partly drawn)
## Output 0.0556
